// values below are reported Selectivity index II/IX
STUDY TARGET: hCA IX (Homo sapiens)
ASSAY COMMENT: stopped-flow CO2 hydrase assay, hCA IX
CONDITION PARAMETERS: ratio KI hCA II / KI hCA IX

Sample answers from the record:
| MOLECULE | MEASURED ENDPOINT | ENDPOINT VALUE |
| --- | --- | --- |
| NS(=O)(=O)c1cccc(-n2nnc(S(=O)(=O)c3ccccc3)c2-c2ccc(-c3ccccc3)cc2)c1 [Compound 10k] | Selectivity index II/IX | 9.33 |
| NS(=O)(=O)c1cccc(-n2nnc(S(=O)(=O)c3ccccc3)c2-c2cccc(Br)c2)c1 [Compound 10f] | Selectivity index II/IX | 12.93 |
| NS(=O)(=O)c1ccc(-n2nnc(S(=O)(=O)c3ccccc3)c2-c2ccc(Cl)cc2)cc1 [Compound 9d] | Selectivity index II/IX | 2.26 |
| NS(=O)(=O)c1ccc(-n2nnc(S(=O)(=O)c3ccccc3)c2-c2ccc(-c3ccccc3)cc2)cc1 [Compound 9k] | Selectivity index II/IX | 33.60 |
| COc1ccc(-c2c(S(=O)(=O)c3ccccc3)nnn2-c2ccc(S(N)(=O)=O)cc2)cc1Br [Compound 9h] | Selectivity index II/IX | 1.30 |

Q: // returns reported Selectivity index II/IX for input NS(=O)(=O)c1cccc(-n2nnc(S(=O)(=O)c3ccccc3)c2-c2ccc(Br)cc2)c1 [Compound 10e]
A: 5.50

Q: // returns reported Selectivity index II/IX for input NS(=O)(=O)c1ccc(-n2nnc(S(=O)(=O)c3ccccc3)c2-c2ccccc2)cc1 [Compound 9a]
A: 0.45

Reference source for all entries: paper PMC9154810
